Molecular target: PRMT5 (Homo sapiens, UniProt O14744)
Construct: purchased Viva (custom protein)
Sequence (O14744 whole entry): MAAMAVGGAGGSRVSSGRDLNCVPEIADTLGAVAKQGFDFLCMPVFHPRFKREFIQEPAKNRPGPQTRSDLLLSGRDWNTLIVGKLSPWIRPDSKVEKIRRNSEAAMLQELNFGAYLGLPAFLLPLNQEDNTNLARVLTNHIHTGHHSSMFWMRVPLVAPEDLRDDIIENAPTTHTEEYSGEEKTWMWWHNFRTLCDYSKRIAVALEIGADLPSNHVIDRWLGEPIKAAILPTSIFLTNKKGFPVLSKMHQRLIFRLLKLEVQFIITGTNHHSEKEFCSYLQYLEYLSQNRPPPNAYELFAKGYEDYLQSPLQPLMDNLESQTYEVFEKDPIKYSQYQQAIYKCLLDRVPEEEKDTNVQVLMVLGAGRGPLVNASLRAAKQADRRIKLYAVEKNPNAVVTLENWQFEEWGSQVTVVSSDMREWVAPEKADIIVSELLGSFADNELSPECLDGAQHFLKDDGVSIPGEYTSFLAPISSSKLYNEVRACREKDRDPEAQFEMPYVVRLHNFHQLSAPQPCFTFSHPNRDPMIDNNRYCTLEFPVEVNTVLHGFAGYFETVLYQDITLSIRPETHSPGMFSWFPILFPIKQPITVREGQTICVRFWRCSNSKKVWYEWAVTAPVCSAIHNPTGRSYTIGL
Sequence (Q9BQA1 whole entry partner): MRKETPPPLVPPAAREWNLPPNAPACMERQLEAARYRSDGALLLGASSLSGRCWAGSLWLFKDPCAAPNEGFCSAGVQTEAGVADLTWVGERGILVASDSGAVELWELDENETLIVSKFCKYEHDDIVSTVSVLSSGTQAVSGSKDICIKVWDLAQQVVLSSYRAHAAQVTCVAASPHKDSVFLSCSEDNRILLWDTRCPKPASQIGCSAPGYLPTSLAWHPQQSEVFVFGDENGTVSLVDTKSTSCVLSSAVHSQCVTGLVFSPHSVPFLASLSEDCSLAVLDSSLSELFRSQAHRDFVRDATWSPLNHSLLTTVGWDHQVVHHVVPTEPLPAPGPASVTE
Experiment: PRMT5 IC50 assay with no cofactor
Type: biochemical
Settings: read-out: No Co-factor IC50
Parameter measured: IC50

Below are worked cases with known answers.
INSERT INTO results (mol_smiles, parameter_measured, result) VALUES
  ('CC(=O)N1CC(Nc2cc(C(=O)NC[C@H](O)CN3CCc4c(ccc(OCc5cnco5)c4Cl)C3)nc(C(C)C)n2)C1', 'IC50', '0.5 to 5 µM'),
  ('CCCN(C)c1nc(NC2COC2)cc(C(=O)NC[C@H](O)CN2CCc3c(ccc(OCc4cnco4)c3Cl)C2)n1', 'IC50', '0.5 to 5 µM');

Exam item: Give the reported IC50 for CC(=O)N1CCC(Nc2cc(C(=O)NC[C@H](O)CN3CCc4cc(OCc5ocnc5C)ccc4C3)cc(C(C)C)n2)CC1 (system: PRMT5 (Homo sapiens, UniProt O14744)).
Marked response: 0.5 to 5 µM

Exam item: Same thing, different compound: Cc1ncoc1COc1ccc2c(c1)CCN(C[C@@H](O)CNC(=O)c1cc(NC3CCCCC3)ncn1)C2
Marked response: ≥ 5 µM

Exam item: Can you check O=C(NC[C@H](O)CN1CCc2c(ccc(OCc3cnco3)c2Cl)C1)c1cc(NC2COC2)nc(N2CCN(C(=O)C3CC3)CC2)n1 next?
Marked response: 0.5 to 5 µM

Exam item: Item: O=C(NC[C@H](O)CN1CCc2c(ccc(OCc3cnco3)c2Br)C1)c1cccc(NC2CCC2)c1
Marked response: ≥ 5 µM

Exam item: What do you get for CC(=O)N1CCC(Nc2cc(C(=O)NC[C@H](O)CN3CCc4c(ccc(OCc5ccnn5C)c4Cl)C3)ncn2)CC1 ?
Marked response: ≥ 5 µM

The values you see were collected from patent US11986471B2.
